biological target: Cytochrome P450 3A4 (Homo sapiens); experiment: Binding affinity to C-terminal His-tagged wild type CYP3A4 (unknown origin)-bromoergocryptine complex expressed in Escherichia coli by spectrophotometric analysis; type: ADME; settings: read-out: Ks
Sequence (P08684 whole entry): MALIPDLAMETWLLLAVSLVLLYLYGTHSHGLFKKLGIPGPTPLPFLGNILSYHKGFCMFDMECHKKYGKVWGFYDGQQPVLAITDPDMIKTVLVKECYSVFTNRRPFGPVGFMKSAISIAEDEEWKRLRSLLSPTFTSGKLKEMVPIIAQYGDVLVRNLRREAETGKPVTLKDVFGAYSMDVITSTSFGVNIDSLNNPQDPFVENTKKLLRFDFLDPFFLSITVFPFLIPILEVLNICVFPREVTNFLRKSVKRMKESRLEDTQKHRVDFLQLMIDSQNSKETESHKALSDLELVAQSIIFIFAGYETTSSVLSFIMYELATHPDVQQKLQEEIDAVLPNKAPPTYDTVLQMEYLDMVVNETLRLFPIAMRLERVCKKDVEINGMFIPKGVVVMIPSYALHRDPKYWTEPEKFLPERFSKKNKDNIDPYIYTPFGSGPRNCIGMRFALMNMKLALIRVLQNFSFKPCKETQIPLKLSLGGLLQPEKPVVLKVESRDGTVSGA
Readout Name: Kd (nM)

INSERT INTO assay_data (smiles_record, scale_unit, value_measured) VALUES
  ('CC(C)c1nc(CN(C)C(=O)N[C@H](C(=O)N[C@H](CC[C@H](Cc2ccccc2)NC(=O)OCc2cccnc2)Cc2ccccc2)C(C)C)cs1', 'nM', 5);

====

target: Cytochrome P450 3A4 (Homo sapiens); test: Binding affinity to C-terminal His-tagged wild type CYP3A4 (unknown origin) expressed in Escherichia coli by spectrophotometric analysis; assay type: ADME; conditions: read-out: Ks
pKd: −log10 of the molar value.
compounds and their reported pKd
Readout Name: pKd

INSERT INTO results (smiles_record, value_measured) VALUES
  ('CC(C)c1nc(CN(C)C(=O)N[C@H](C(=O)N[C@H](CC[C@H](Cc2ccccc2)NC(=O)OCc2cccnc2)Cc2ccccc2)C(C)C)cs1', 7.60),
  ('CC(C)c1nc(CN(C)C(=O)N[C@H](C(=O)N[C@H](CC[C@H](Cc2ccccc2)NC(=O)OCc2cnco2)Cc2ccccc2)C(C)C)cs1', 6.24),
  ('CC(C)c1nc(CN(C)C(=O)N[C@H](C(=O)N[C@H](CC[C@H](Cc2ccccc2)NC(=O)OCc2cnc[nH]2)Cc2ccccc2)C(C)C)cs1', 7.66);
